inhibition for assorted molecules
System: Spodoptera littoralis
Test: Tested for its ability to inhibit antennal esterases of Spodoptera littoralis without pre-incubation at 63 uM concentration

>  <structure.smiles>
CCCCCCCCCCCCCCCCC(=O)C(F)(F)F

>  <target.desc>
Spodoptera littoralis

>  <inhibition, %>
50

$$$$
>  <structure.smiles>
CCCCCCCCCCCCCCCCCC(=O)C(F)(F)F

>  <target.desc>
Spodoptera littoralis

>  <inhibition, %>
44

$$$$
>  <structure.smiles>
O=C(c1ccccc1)C(F)(F)F

>  <target.desc>
Spodoptera littoralis

>  <inhibition, %>
31

$$$$
>  <structure.smiles>
O=C(c1cccc2ccccc12)C(F)(F)F

>  <target.desc>
Spodoptera littoralis

>  <inhibition, %>
38

$$$$
>  <structure.smiles>
O=C(Cc1ccccc1)C(F)(F)F

>  <target.desc>
Spodoptera littoralis

>  <inhibition, %>
36

$$$$
>  <structure.smiles>
O=C(CCc1ccccc1)C(F)(F)F

>  <target.desc>
Spodoptera littoralis

>  <inhibition, %>
43

$$$$

---

Assay: Compound was tested for competitive inhibition of antennal esterases of Spodoptera littoralis
// reported Ki for each item listed

>  <structure.smiles>
CCCCCCCCSCC(=O)C(F)(F)F

>  <measurement.units>
µM

>  <Ki>
25.1

$$$$
>  <structure.smiles>
CCCCCCCCCCCCC(=O)C(F)(F)F

>  <measurement.units>
µM

>  <Ki>
29.8

$$$$
>  <structure.smiles>
O=C(c1ccc2ccccc2c1)C(F)(F)F

>  <measurement.units>
µM

>  <Ki>
249

$$$$

The measured values listed here are drawn from ChEMBL document CHEMBL1150435.
